Cited source: the array DNA melting data of Ke et al.

Reported Tm is given for each of the following substances.
assay: melting temperature; UV melt of duplexes; conditions: sodium 0.62 M; strand 2 µM
Report field: quantity (unit follows the number).

>  <substance>
CGCGCCACGTGTGATCTACAGCCGTTCGGC+GCCGAACGGCTGTAGATCACACGTGGCGCG ((((((((((((((((((((((((((((((+))))))))))))))))))))))))))))))

>  <value_reported>
83.4 °C

$$$$

Entry CGCCGCTGCCGACTGGAGGAGCGCGGGACG+CGTCCCGCGCTCCTCCAGTCGGCAGCGGCG ((((((((((((((((((((((((((((((+)))))))))))))))))))))))))))))) , Tm reported as 87.7 °C

Tm measured on AGCAAGTCGAGCAGGGCCTACGTTT+AAACGTAGGCCCTGCTCGACTTGCT (((((((((((((((((((((((((+))))))))))))))))))))))))) = 80 °C

// sample ATAACTTTACGTGTGTGACCTATTA+TAATAGGTCACACACGTAAAGTTAT (((((((((((((((((((((((((+))))))))))))))))))))))))) , its Tm was 69.6 °C

Measured Tm, GTCCACGCCCGGTGCGACGG+CCGTCGCACCGGGCGTGGAC ((((((((((((((((((((+)))))))))))))))))))) : 79.8 °C

Data point: TCGGAGAAATCACTGAGCTGCCTGAGAAGA+TCTTCTCAGGCAGCTCAGTGATTTCTCCGA ((((((((((((((((((((((((((((((+)))))))))))))))))))))))))))))) ; Tm = 79 °C

---

Known Tm of a selection of substances
experiment: melting temperature; melt of duplexes; settings: sodium 0.0675 M; strand 1 µM
Please state the figure in °C; there is no need to write the unit.

Notebook: CGACGTGCTTTATGTGCTG+CAGCACATTGGGCACGTCG ((((((((...((((((((+))))))))...)))))))) , Tm read as 49.8

The reported Tm of the substance CGACGTGCAGAATGTGCTG+CAGCACATCCTGCACGTCG ((((((((((.((((((((+)))))))).)))))))))) was 57.4

So, CGACGTGCGCAATGTGCTG+CAGCACATAGTGCACGTCG ((((((((.(.((((((((+)))))))).).)))))))) ? Its Tm was 51.6

So, CGACGTGCATAATGTGCTG+CAGCACATGATGCACGTCG ((((((((((.((((((((+)))))))).)))))))))) ? Its Tm was 56.8

---

assay: melting temperature; melt of duplexes; details: sodium 0.0675 M; strand 1 µM
Reported Tm is given for each of the following substances.
# number only, unit °C dropped from output

>  <substance>
CGACGTGCGGTATGTGCTG+CAGCACATGTCGCACGTCG (((((((((..((((((((+))))))))..)))))))))

>  <unit_of_measurement>
°C

>  <Tm>
57.1

$$$$

The substance listed as CGACGTGCGTGATGTGCTG+CAGCACATACGGCACGTCG ((((((((...((((((((+))))))))...)))))))) shows Tm equal to 51.1

Quick note, Tm for CGACGTGCTTGATGTGCTG+CAGCACATTAAGCACGTCG ((((((((((.((((((((+)))))))).)))))))))) landed at 57.2

Tm recorded for this substance, CGACGTGCGCTATGTGCTG+CAGCACATCCGGCACGTCG ((((((((...((((((((+))))))))...)))))))) , is 48.1

Just so you know, measured Tm for CGACGTGCAGCATGTGCTG+CAGCACATGATGCACGTCG (((((((((.(((((((((+))))))))).))))))))) came out at 61.3

Documented Tm of CGACGTGCCTAATGTGCTG+CAGCACATATAGCACGTCG ((((((((...((((((((+))))))))...)))))))) : 49.6

// field: Tm; key: CGACGTGCCTAATGTGCTG+CAGCACATTCCGCACGTCG ((((((((..(((((((((+)))))))))..)))))))) ; value = 49.7

Please fill in: Tm reported for CGACGTGCATTATGTGCTG+CAGCACATGCTGCACGTCG (((((((((..((((((((+))))))))..))))))))) = 49

Item: CGACGTGCTCCATGTGCTG+CAGCACATTAGGCACGTCG ((((((((...((((((((+))))))))...)))))))) | Tm: 48.4

GET /value?item= CGACGTGCGATATGTGCTG+CAGCACATATGGCACGTCG ((((((((.((((((((((+)))))))))).)))))))) &field=Tm returns 56.5

What the record says about CGACGTGCTTCATGTGCTG+CAGCACATCATGCACGTCG ((((((((.(.((((((((+)))))))).).)))))))) : Tm is 49.2

So, CGACGTGCTAGATGTGCTG+CAGCACATGACGCACGTCG ((((((((...((((((((+))))))))...)))))))) ? Its Tm was 48.1

In plain terms, CGACGTGCGTAATGTGCTG+CAGCACATTGCGCACGTCG (((((((((.(((((((((+))))))))).))))))))) has a documented Tm of 60.3

# substance CGACGTGCACGATGTGCTG+CAGCACATGTTGCACGTCG (((((((((..((((((((+))))))))..))))))))) ; its Tm = 49.9

Tm measured on CGACGTGCACGATGTGCTG+CAGCACATCCAGCACGTCG ((((((((..(((((((((+)))))))))..)))))))) = 50.6

---

experiment: melting temperature; melt of duplexes; details: sodium 0.0675 M; strand 1 µM
metric_name: Tm
Respond with the figure and its unit, in that order.

Completed entries (count: 2):
>  <substance>
CGACGTGCATAATGTGCTG+CAGCACATATGGCACGTCG ((((((((...((((((((+))))))))...))))))))

>  <Tm>
50.4 °C

$$$$
>  <substance>
CGACGTGCTTTATGTGCTG+CAGCACATCGTGCACGTCG ((((((((...((((((((+))))))))...))))))))

>  <Tm>
42.3 °C

$$$$

Note: attention shifts to another entry.
The recorded Tm for CGACGTGCCACATGTGCTG+CAGCACATATAGCACGTCG ((((((((.(.((((((((+)))))))).).)))))))) is 48.4 °C

---

Tm by entry:
assay: melting temperature; melt of duplexes; settings: sodium 0.0675 M; strand 1 µM
Units required after the number.

Look over these answered cases.
>  <substance>
CGACGTGCTTCATGTGCTG+CAGCACATCAGGCACGTCG ((((((((.(.((((((((+)))))))).).))))))))

>  <Tm>
49.1 °C

$$$$
>  <substance>
CGACGTGCTACATGTGCTG+CAGCACATGAGGCACGTCG ((((((((..(((((((((+)))))))))..))))))))

>  <Tm>
55.8 °C

$$$$

GET /value?item= CGACGTGCGATATGTGCTG+CAGCACATGTAGCACGTCG ((((((((.(.((((((((+)))))))).).)))))))) &field=Tm returns 54.9 °C

Sample CGACGTGCGATATGTGCTG+CAGCACATTGGGCACGTCG ((((((((...((((((((+))))))))...)))))))) ; Tm observed: 50.3 °C

GET /value?item= CGACGTGCATAATGTGCTG+CAGCACATTCCGCACGTCG ((((((((..(((((((((+)))))))))..)))))))) &field=Tm returns 50.2 °C

Reported Tm for CGACGTGCTAGATGTGCTG+CAGCACATACGGCACGTCG ((((((((...((((((((+))))))))...)))))))) was 49.9 °C

Notebook: CGACGTGCACAATGTGCTG+CAGCACATGAAGCACGTCG ((((((((...((((((((+))))))))...)))))))) , Tm read as 49.9 °C

Looking up CGACGTGCCGAATGTGCTG+CAGCACATTTCGCACGTCG ((((((((..(((((((((+)))))))))..)))))))) , I found its Tm recorded as 52.4 °C
